assay: CEETOX_H295R_DOC: CeeTox H295R High-throughput Steroidogenesis Assay for DOC (AID 2283439); details: actives raise or lower the signal
Active and inactive are the calls of the source. Rule for the calls: active = hit-call score of the fitted dose curve at least 0.9, where 1 is the maximum; inactive = score below 0.9.

compound | AC50
C=CC(C)(C)O | inactive
Nc1cc([N+](=O)[O-])ccc1Cl | inactive
NC(=O)Nc1ccc(Cl)cc1 | inactive
C#C[C@]1(O)CC[C@H]2[C@@H]3CCC4=Cc5oncc5C[C@]4(C)[C@H]3CC[C@@]21C | inactive
C=CCOc1nc(OCC=C)nc(OCC=C)n1 | inactive
Cc1ccc2n[nH]nc2c1 | inactive
CC(C)c1cccc(O)c1 | inactive
CC1COc2ccccc2N1C(=O)C(Cl)Cl (configuration not stated) | 10.4 µM (active)
COc1cc2ncnc(Nc3cccc(Cl)c3)c2cc1OC | 0.496 µM (active)
Cc1cccc(C)c1C | inactive
O=C(O)c1ccc([N+](=O)[O-])cc1 | inactive
CC1(C)[C@H](C(=O)OCc2cccc(Oc3ccccc3)c2)[C@@H]1C=C(Cl)Cl | inactive
